Values compiled from PubChem BioAssay AID1863.

run.description: PhoP-dependent GFP reporter repression – Salmonella Typhimurium, primary screen (AID 1863);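 also: 0% = low Mg2+ inducing control and 100% = high Mg2+ repressing control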
condition.summary: S. Typhimurium PhoP-regulated promoter GFP reporter, 4 h; at 50 µM; stronger effect = higher value
About 480 (0.16%) of roughly 300,000 compounds were called active. A selection follows. Entries with a potency or affinity are not part of this list.
experimental.endpoint: inhibition (%)
Kindly answer with a numeric value in %, unit omitted.

See these solved cases before continuing.
> print(dat)
                                   compound  experimental.endpoint  unit  result.number
1           CN1/C(=C\C=N\O)C(C)(C)c2ccccc21             inhibition     %          -8.82
2  CCN1/C(=C/c2ccc3cc(C)ccc3[n+]2CC)Sc2ccccc21             inhibition     %           -133
3         Cn1c(COc2ccccc2O)[n+](C)c2ccccc21             inhibition     %           19.1

# input compound: CCCCCOC(=O)Cn1c(=O)oc2ccc(C)cc21 ; wanted: its inhibition
8.75

Reported inhibition for CC1=C(C(=O)Nc2cccc([N+](=O)[O-])c2)C2(CCC(C)CC2)OC1=O (stereo not drawn) : what is it?
-3.06

Param item = O=C(O)c1cn(-c2ccc(N3CCCC3)c(F)c2)c2c(F)c(F)c(F)cc2c1=O ; retrieve measured inhibition.
-6.63

Given the entry Cc1nn(C)c(C)c1CN(C)C(=O)CCCC(=O)O , report its measured inhibition.
-3.44

Look up inhibition: CCOC(=O)Cn1c(=N)n(CCOc2cccc(C)c2)c2ccccc21
-6.78

May I ask what inhibition has been recorded for CN(C)C(=O)CN1C(=O)c2cccc3cccc1c23 ?
8.86

Endpoint output: inhibition of COc1ccc(C(=O)C2CCCN(C(=O)C3CCOCC3)C2)c(C)c1 (stereo not drawn) . Value?
4.46

I'd like to know its inhibition. The compound in question is CC(C)OCCCNc1nc2c(-c3ccccc3)nnn2c2ccccc12
-3.07

For CCCCCCCCCCOC(=O)Cn1c(COc2ccccc2C)[n+](C)c2ccccc21 , what is its reported inhibition?
13.3

# inhibition lookup, item CC(=O)N1CCOc2ccc(S(=O)(=O)N3CCC(C(=O)Nc4ccc(C)cc4)CC3)cc21
0.99

Record request: inhibition value, item CC(NC(=O)COc1ccc(Oc2ccccc2)cc1)C(=O)O (stereo not drawn)
-6.64

Look at this compound and give its reported inhibition. COc1ccc(S(=O)(=O)NN=C2CCCC2)cc1
1.9

Consider the compound CCN1/C(=C/C=C/C=C/C=C/c2sc3ccccc3[n+]2CC)Sc2ccccc21 and give its measured inhibition.
-8.59

inhibition for Cc1c(C#N)c(N)nc2c3c(sc12)NC(=O)CC3c1ccccc1 (stereo not drawn) ?
-5.65

Requested read-out: inhibition. Entry: CCOc1ccc(S(=O)(=O)N(CCO)CCO)cc1-c1nc2c(C(C)(C)C)nn(C)c2c(=O)[nH]1
6.61

Item under review: Cc1ccc(SCCc2ccc(C)nc2)cc1 . Reported inhibition?
9.59

Quick one: inhibition for N#CCOc1nc(N2CCOCC2)nc(N2CCOCC2)n1 ?
-1.4

Need inhibition, item CC[n+]1c(/C=C(/C)SC)sc2ccccc21
0.31

Name the recorded inhibition for CC(C)(C)c1ccc(C(=O)N2CCN(C(=O)c3ccco3)CC2)cc1 .
1.4

GET /values?readout=inhibition&item= CC[n+]1c(/C=C(\C)SC)sc2ccccc21
0.17
